- Tested on: Unconfirmed Vancomycin-intermediate Staphylococcus aureus Isolates
- method-description: MIC assay (NCCLS broth dilution), unconfirmed VISA isolates
- Type: cell-based
- assay-context: 6 unconfirmed VISA isolates (vancomycin MIC 4 ug/ml); combinations at 2.5:1
Exercise: for every item that follows, state its recorded MIC Range.

- smiles-str: "CN[C@H](CC(C)C)C(=O)N[C@H]1C(=O)N[C@@H](CC(N)=O)C(=O)N[C@H]2C(=O)N[C@H]3C(=O)N[C@H](C(=O)N[C@H](C(=O)O)c4cc(O)cc(O)c4-c4cc3ccc4O)[C@H](O)c3ccc(c(Cl)c3)Oc3cc2cc(c3O[C@@H]2O[C@H](CO)[C@@H](O)[C@H](O)[C@H]2O[C@H]2C[C@](C)(N)[C@H](O)[C@H](C)O2)Oc2ccc(cc2Cl)[C@H]1O"
  measured-metric: "MIC Range"
  reported-measurement: "4 mg/L"

Next compound, MIC Range to be filled in.
Tested on Unconfirmed Vancomycin-intermediate Staphylococcus aureus Isolates, the item `CC(=O)NC[C@H]1CN(c2ccc(N3CCOCC3)c(F)c2)C(=O)O1` showed MIC Range equal to 1 to 4 mg/L

----------
- System: Vancomycin-intermediate Staphylococcus aureus Isolates
- method-description: MIC assay (NCCLS broth dilution), VISA isolates
- Assay type: cell-based
- assay-context: Staphylococcus aureus; 2 VISA isolates; combinations at 2.5:1, given as NB/partner
For each of the compounds below, state its MIC50.
Numbers only, in mg/L.

Please review the entries below; each comes with its answer.
- smiles-str: "CC(=O)NC[C@H]1CN(c2ccc(N3CCOCC3)c(F)c2)C(=O)O1"
  study-target: "Vancomycin-intermediate Staphylococcus aureus Isolates"
  MIC50 (mg/L): 1
- smiles-str: "CN(C)c1ccc(O)c2c1C[C@H]1C[C@H]3[C@H](N(C)C)C(O)=C(C(N)=O)C(=O)[C@@]3(O)C(O)=C1C2=O"
  study-target: "Vancomycin-intermediate Staphylococcus aureus Isolates"
  MIC50 (mg/L): 0.06

// moving on: another record for MIC50
According to the records, this compound `CN(C)[C@@H]1C(O)=C(C(N)=O)C(=O)[C@@]2(O)C(O)=C3C(=O)c4c(O)cccc4[C@@](C)(O)[C@H]3C[C@@H]12` displays MIC50 of 0.25

----------
- Tested on: Methicillin-Susceptible Staphylococcus aureus Isolates
- method-description: MIC assay (NCCLS broth dilution), MSSA clinical isolates
- Type: cell-based
- assay-context: Staphylococcus aureus, MSSA isolate 135, 03MAR06; read-out: Minimal Inhibitory Concentration
measured-metric: MIC
Quote the value and follow it with the unit of measurement.

Reference set, count: 3
- smiles-str: "CN(C)c1ccc(O)c2c1C[C@H]1C[C@H]3[C@H](N(C)C)C(O)=C(C(N)=O)C(=O)[C@@]3(O)C(O)=C1C2=O"
  study-target: "Methicillin-Susceptible Staphylococcus aureus Isolates"
  reported-measurement: "0.06 µg/mL"
- smiles-str: "CN(C)[C@@H]1C(O)=C(C(N)=O)C(=O)[C@@]2(O)C(O)=C3C(=O)c4c(O)cccc4[C@@](C)(O)[C@H]3C[C@@H]12"
  study-target: "Methicillin-Susceptible Staphylococcus aureus Isolates"
  reported-measurement: "0.5 µg/mL"
- smiles-str: "CC(=O)NC[C@H]1CN(c2ccc(N3CCOCC3)c(F)c2)C(=O)O1"
  study-target: "Methicillin-Susceptible Staphylococcus aureus Isolates"
  reported-measurement: "4 µg/mL"

I would be grateful if you could provide MIC for each of the following entries.
1. CO[C@@H]1[C@@H](OC(N)=O)[C@@H](O)[C@H](Oc2ccc3c(O)c(NC(=O)c4ccc(O)c(CC=C(C)C)c4)c(=O)oc3c2C)OC1(C)C
2. Cc1onc(-c2ccccc2)c1C(=O)N[C@@H]1C(=O)N2[C@@H]1SC(C)(C)[C@@H]2C(=O)O

Found:
["0.31 µg/mL", "0.25 µg/mL"]
